- Assayed system: JAK1 (Homo sapiens (Human), UniProt P23458)
- Sequence (P23458 whole entry): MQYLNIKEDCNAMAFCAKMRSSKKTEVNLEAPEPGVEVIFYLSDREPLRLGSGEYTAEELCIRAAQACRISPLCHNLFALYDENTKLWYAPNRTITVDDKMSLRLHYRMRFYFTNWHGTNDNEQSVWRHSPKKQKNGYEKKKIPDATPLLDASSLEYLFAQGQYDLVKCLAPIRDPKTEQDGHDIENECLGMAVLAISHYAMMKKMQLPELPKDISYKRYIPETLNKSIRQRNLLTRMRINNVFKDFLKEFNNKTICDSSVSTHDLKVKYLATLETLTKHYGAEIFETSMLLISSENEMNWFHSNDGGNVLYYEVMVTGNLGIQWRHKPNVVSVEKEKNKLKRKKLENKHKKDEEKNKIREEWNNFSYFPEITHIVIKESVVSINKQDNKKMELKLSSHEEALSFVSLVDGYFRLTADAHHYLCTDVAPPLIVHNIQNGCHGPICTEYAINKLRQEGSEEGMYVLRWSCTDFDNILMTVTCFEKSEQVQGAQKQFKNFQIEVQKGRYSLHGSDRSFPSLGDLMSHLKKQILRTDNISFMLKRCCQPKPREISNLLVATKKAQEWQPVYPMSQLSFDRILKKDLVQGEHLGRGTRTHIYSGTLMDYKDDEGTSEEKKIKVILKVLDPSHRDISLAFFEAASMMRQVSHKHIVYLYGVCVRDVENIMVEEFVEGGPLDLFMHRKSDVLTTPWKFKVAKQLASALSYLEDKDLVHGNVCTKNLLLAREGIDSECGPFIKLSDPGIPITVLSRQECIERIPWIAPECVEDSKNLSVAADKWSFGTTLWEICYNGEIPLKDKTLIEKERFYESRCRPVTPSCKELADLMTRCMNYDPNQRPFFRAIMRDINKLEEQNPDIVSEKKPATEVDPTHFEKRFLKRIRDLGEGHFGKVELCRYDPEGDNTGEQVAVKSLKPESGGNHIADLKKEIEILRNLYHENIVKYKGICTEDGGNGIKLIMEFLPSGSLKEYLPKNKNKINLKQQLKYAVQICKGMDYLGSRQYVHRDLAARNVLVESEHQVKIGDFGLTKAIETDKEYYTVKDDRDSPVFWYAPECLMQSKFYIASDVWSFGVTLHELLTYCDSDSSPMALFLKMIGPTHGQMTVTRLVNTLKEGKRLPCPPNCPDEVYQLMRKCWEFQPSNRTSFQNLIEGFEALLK
- Assay summary: JAK enzymatic assay (peptide mobility shift), JAK1
- Measurement conditions: recombinant JAK1 20 nM, IRS-1 peptide, 240 minutes
Endpoint: IC50 (nM)

Recorded IC50, per entry:
[[record]]
compound = "COC[C@@H]1CCN(S(=O)(=O)C[C@H]2CC[C@H](N(C)c3ncnc4[nH]ccc34)CC2)C1 [Example 73]"
endpoint = "IC50"
val = 1.69

[[record]]
compound = "CC(C)COC1CCCN(S(=O)(=O)C[C@H]2CC[C@H](N(C)c3ncnc4[nH]ccc34)CC2)C1 (stereo partly drawn) [Example 138]"
endpoint = "IC50"
val = 0.00133

[[record]]
compound = "CN(c1ncnc2[nH]ccc12)[C@H]1CC[C@H](CS(=O)(=O)N2CCN(Cc3ccccn3)CC2)CC1 [Example 123]"
endpoint = "IC50"
val = 13.7

[[record]]
compound = "Cc1cccc(C[C@H]2CCCN2S(=O)(=O)C[C@H]2CC[C@H](N(C)c3ncnc4[nH]ccc34)CC2)n1 [Example 106]"
endpoint = "IC50"
val = 3.6

[[record]]
compound = "CN(c1ncnc2[nH]ccc12)[C@H]1CC[C@H](CS(=O)(=O)N2CC[C@H](O)[C@H](O)C2)CC1 [Example 22]"
endpoint = "IC50"
val = 11.5

[[record]]
compound = "CCCS(=O)(=O)CC1CCCN(S(=O)(=O)C[C@H]2CC[C@H](N(C)c3ncnc4[nH]ccc34)CC2)C1 (stereo partly drawn) [Example 17]"
endpoint = "IC50"
val = 6.06

[[record]]
compound = "CN(c1ncnc2[nH]ccc12)[C@H]1CC[C@H](CS(=O)(=O)N2CCCC(O)(COc3cccc(F)c3)C2)CC1 (stereo partly drawn) [Example 19]"
endpoint = "IC50"
val = 14.8

[[record]]
compound = "CC1CC(CS(=O)(=O)N2CC[C@H](CO)C2)CCC1N(C)c1ncnc2[nH]ccc12 (stereo partly drawn) [Example 133]"
endpoint = "IC50"
val = 0.00508

[[record]]
compound = "CN(c1ncnc2[nH]ccc12)[C@H]1CC[C@H](CS(=O)(=O)N2CC[C@H](COCc3cccnc3)C2)CC1 [Example 96]"
endpoint = "IC50"
val = 19.3

[[record]]
compound = "CCN(CC)C(=O)CO[C@@H]1CCN(S(=O)(=O)C[C@H]2CC[C@H](N(C)c3ncnc4[nH]ccc34)CC2)C1 [Example 101]"
endpoint = "IC50"
val = 4.86


P: CC[C@H](O)C1CCN(S(=O)(=O)C[C@H]2CC[C@H](N(C)c3ncnc4[nH]ccc34)CC2)CC1 [Example 53]
Q: CN(C)C(=O)CO[C@@H]1CCN(S(=O)(=O)C[C@H]2CC[C@H](N(C)c3ncnc4[nH]ccc34)CC2)C1 [Example 77]
Query: When P and Q are compared, which has the higher number for IC50? Lab note: record the label of whichever item you select.
Result: P
(P: 22.8 nM, Q: 10.1 nM)
